# experimentalSetup: in cyclohexane, 298.15 K
metricName: solubility (mole fraction)

> print(dat)
                                   molecule  experimentalresult
1  CC(C)(C)C(=O)C(Oc1ccc(Cl)cc1)n1cncn1 (stereo unspecified)             0.00382
